Each record here notes measured Maximum mean fluorescence intensity.
- TEST_TARGET: T1, human MSLN full-length protein (NCBI: AAH09272.1) expressed on HEK293T-hMSLN-B8 cells (human, UniProt Q13421 296-598)
- T1 construct: Whole encoded precursor
- T1 sequence (Q13421 other isoform, or with tags, fused parts or gaps limits assumed): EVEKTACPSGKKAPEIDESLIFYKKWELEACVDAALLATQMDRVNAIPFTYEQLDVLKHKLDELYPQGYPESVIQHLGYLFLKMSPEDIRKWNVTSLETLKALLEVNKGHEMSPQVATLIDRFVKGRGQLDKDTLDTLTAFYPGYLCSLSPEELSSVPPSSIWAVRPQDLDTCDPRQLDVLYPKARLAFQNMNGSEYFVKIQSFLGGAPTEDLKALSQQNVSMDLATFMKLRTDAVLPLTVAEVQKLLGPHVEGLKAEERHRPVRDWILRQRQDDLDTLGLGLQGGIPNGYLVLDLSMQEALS
- ASSAY_TEXT: FACS on HEK293T-hMSLN-B8 cells
MEASURED_QUANTITY: Maximum mean fluorescence intensity

{"BINDER": "S009-F1.59.1 (antibody, human IgG1, kappa, V domains shown, human-murine chimeric antibody, human IgG1/kappa constant regions) VH: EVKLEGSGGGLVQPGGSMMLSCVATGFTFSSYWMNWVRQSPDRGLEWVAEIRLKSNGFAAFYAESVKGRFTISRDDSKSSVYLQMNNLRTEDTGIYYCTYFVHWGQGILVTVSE VL: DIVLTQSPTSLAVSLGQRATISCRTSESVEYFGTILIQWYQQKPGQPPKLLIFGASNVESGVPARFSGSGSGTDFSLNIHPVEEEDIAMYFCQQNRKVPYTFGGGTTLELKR", "MEAS_VALUE": 32800}
{"BINDER": "S009-F1.62.9 (antibody, human IgG1, kappa, V domains shown, human-murine chimeric antibody, human IgG1/kappa constant regions) VH: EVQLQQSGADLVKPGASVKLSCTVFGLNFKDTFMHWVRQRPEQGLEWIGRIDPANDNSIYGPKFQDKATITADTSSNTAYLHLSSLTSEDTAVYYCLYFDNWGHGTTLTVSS VL: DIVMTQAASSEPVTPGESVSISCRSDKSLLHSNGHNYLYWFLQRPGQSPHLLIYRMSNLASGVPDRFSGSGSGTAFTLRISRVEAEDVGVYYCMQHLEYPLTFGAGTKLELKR", "MEAS_VALUE": 9550}

From: patent US20250250357A1
